Ref: paper PMC9090415

biological target: P. falciparum apicoplast DNA polymerase (Pf-apPOL) (Plasmodium falciparum, UniProt Q8ILY1); experiment: Fluorescence-based high-throughput DNA polymerase assay (molecular beacon), primary screen and dose-response; type: biochemical; conditions: DRC-2; read at 5'; concentration 10
Sequence (Q8ILY1 entry or part of it): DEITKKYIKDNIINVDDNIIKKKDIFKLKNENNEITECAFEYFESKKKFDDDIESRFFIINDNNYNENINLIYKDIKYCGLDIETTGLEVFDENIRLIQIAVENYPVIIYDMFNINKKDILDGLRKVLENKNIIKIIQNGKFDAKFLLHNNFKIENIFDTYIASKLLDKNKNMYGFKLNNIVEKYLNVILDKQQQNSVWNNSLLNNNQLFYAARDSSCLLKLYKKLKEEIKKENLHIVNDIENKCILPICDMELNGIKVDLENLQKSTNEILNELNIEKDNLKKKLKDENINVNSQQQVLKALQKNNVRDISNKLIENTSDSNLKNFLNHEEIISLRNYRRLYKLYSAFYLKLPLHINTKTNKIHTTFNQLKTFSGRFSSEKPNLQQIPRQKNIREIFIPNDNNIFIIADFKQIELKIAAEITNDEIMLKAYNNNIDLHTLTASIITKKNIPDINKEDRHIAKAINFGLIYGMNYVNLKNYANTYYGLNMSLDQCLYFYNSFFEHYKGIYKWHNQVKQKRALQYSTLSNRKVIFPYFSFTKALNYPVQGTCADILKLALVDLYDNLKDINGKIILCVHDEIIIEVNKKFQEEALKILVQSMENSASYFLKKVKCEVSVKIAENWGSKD
Outcome: met for % inhibition Apo pol 5' 10 of at least 30%; not met for anything lower.

compound="N#Cc1c(O)nc(N2CCCCC2)nc1-c1ccc2c(c1)OCO2 [KU0083146]" target_or_test_system="P. falciparum apicoplast DNA polymerase (Pf-apPOL) (Plasmodium falciparum, UniProt Q8ILY1)" classification=met
compound="Cc1ccc(N2CCC(NC(=O)Cc3cccs3)C2=O)cc1C (stereo not shown) [Molecule 57, O=C(NC1CCN(C1=O)c1ccc(c(c1)C)C)Cc1cccs1]" target_or_test_system="P. falciparum apicoplast DNA polymerase (Pf-apPOL) (Plasmodium falciparum, UniProt Q8ILY1)" classification="not met"
compound="CC(=O)Nc1cc(C(=O)c2cccs2)nn(-c2ccc(Cl)cc2)c1=O [KU0267905]" target_or_test_system="P. falciparum apicoplast DNA polymerase (Pf-apPOL) (Plasmodium falciparum, UniProt Q8ILY1)" classification="not met"
compound="CCCc1ccc(Oc2coc3cc(OC)ccc3c2=O)cc1 [KU0193249]" target_or_test_system="P. falciparum apicoplast DNA polymerase (Pf-apPOL) (Plasmodium falciparum, UniProt Q8ILY1)" classification="not met"
compound="COc1ccccc1CC(=O)N1CCc2c(nc3cc(-c4ccccc4Cl)[nH]n3c2=O)C1 [Molecule 49]" target_or_test_system="P. falciparum apicoplast DNA polymerase (Pf-apPOL) (Plasmodium falciparum, UniProt Q8ILY1)" classification=met
compound="Nc1cc(Oc2ccc(O)c(N)c2)ccc1O [KU0034728]" target_or_test_system="P. falciparum apicoplast DNA polymerase (Pf-apPOL) (Plasmodium falciparum, UniProt Q8ILY1)" classification=met
compound="COc1ccc(C2CC(c3ccc(Cl)cc3Cl)Nc3nc(N)nn32)cc1OC (stereo not shown) [Molecule 43]" target_or_test_system="P. falciparum apicoplast DNA polymerase (Pf-apPOL) (Plasmodium falciparum, UniProt Q8ILY1)" classification="not met"
compound="Cc1ccsc1Cn1c(C)ccc1C [Molecule 70, Cc1ccsc1Cn1c(C)ccc1C]" target_or_test_system="P. falciparum apicoplast DNA polymerase (Pf-apPOL) (Plasmodium falciparum, UniProt Q8ILY1)" classification="not met"
compound="Cn1nc(-c2nc(-c3ccccc3)no2)c2c1CCN(C(=O)Cc1cccs1)C2 [Molecule 58]" target_or_test_system="P. falciparum apicoplast DNA polymerase (Pf-apPOL) (Plasmodium falciparum, UniProt Q8ILY1)" classification="not met"
compound="Cc1cccc(-c2noc(C(=O)NNC(=O)C(Cl)(Cl)Cl)n2)c1 [KU0266208]" target_or_test_system="P. falciparum apicoplast DNA polymerase (Pf-apPOL) (Plasmodium falciparum, UniProt Q8ILY1)" classification="not met"
compound="CC(C)CC(C(=O)O)N1C(=O)C2C3C=CC(C2C1=O)C1C(=O)N(C(CC(C)C)C(=O)O)C(=O)C31 (stereo not shown) [KU0193449]" target_or_test_system="P. falciparum apicoplast DNA polymerase (Pf-apPOL) (Plasmodium falciparum, UniProt Q8ILY1)" classification="not met"
compound="O=C(CCc1csc(NC(=O)Nc2ccccc2)n1)Nc1nc2ccccc2s1 [KU0177354]" target_or_test_system="P. falciparum apicoplast DNA polymerase (Pf-apPOL) (Plasmodium falciparum, UniProt Q8ILY1)" classification=met
compound="CC(=O)OCC1=C(C(=O)[O-])N2C(=O)[C@@H](NC(=O)Cc3cccs3)[C@H]2SC1.[Na+] [Molecule 73]" target_or_test_system="P. falciparum apicoplast DNA polymerase (Pf-apPOL) (Plasmodium falciparum, UniProt Q8ILY1)" classification="not met"
compound="Cc1cc2[nH]c(C(=O)Nc3ccc(F)cc3)c(CN3CCOCC3)c2s1 [Molecule 60]" target_or_test_system="P. falciparum apicoplast DNA polymerase (Pf-apPOL) (Plasmodium falciparum, UniProt Q8ILY1)" classification="not met"
compound="COc1ccc(/C=C/c2cc(C(=O)O)c3ccccc3n2)cc1 [Molecule 5, COc1ccc(cc1)/C=C/c1nc2ccccc2c(c1)C(=O)O]" target_or_test_system="P. falciparum apicoplast DNA polymerase (Pf-apPOL) (Plasmodium falciparum, UniProt Q8ILY1)" classification="not met"
compound="O=C(c1ccccc1)N1CCc2c(nc3cc(-c4ccccc4)[nH]n3c2=O)C1 [Molecule 30]" target_or_test_system="P. falciparum apicoplast DNA polymerase (Pf-apPOL) (Plasmodium falciparum, UniProt Q8ILY1)" classification=met
